molecular target: RAF1 (human) (UniProt P04049); experiment: KINOMEscan competition binding; settings: compound 10.0 µM
Sequence (P04049 whole entry, looked up): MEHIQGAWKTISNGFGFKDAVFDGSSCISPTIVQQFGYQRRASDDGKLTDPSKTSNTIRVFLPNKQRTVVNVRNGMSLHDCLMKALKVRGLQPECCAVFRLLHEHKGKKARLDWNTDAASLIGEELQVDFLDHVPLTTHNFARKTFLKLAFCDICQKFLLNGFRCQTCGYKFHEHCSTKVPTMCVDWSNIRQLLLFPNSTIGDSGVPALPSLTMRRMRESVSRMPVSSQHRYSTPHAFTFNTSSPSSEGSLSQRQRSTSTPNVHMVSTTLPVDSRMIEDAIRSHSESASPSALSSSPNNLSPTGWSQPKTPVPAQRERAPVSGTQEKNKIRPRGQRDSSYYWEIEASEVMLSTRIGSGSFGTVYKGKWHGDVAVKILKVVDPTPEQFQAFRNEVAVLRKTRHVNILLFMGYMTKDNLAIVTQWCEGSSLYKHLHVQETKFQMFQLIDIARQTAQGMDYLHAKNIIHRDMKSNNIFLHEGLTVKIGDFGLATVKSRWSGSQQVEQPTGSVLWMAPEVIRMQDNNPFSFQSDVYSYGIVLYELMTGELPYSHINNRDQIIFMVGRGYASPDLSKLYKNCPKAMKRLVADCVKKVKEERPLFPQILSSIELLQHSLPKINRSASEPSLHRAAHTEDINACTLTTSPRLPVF
Measurement kind: kinase still bound, per cent of control (%)
A number alone suffices; assume %.

Examples with their reported kinase still bound, per cent of control follow.
Structure smiles: O=c1cc(N2CCOCC2)oc2c(-c3cccc4c3sc3ccccc34)cccc12
Target of assay: RAF1 (human) (UniProt P04049)
Unit name: %
kinase still bound, per cent of control: 97
--
Structure smiles: COc1cc(C(=O)N2CCC(N3CCN(C)CC3)CC2)ccc1Nc1ncc2c(n1)N(C)c1ccccc1C(=O)N2C
Target of assay: RAF1 (human) (UniProt P04049)
Unit name: %
kinase still bound, per cent of control: 100
--
Structure smiles: COc1cc2ncnc(-n3nc(-c4ccccn4)nc3N)c2cc1OC
Target of assay: RAF1 (human) (UniProt P04049)
Unit name: %
kinase still bound, per cent of control: 59
--
Structure smiles: CCN(CC)CCCCNc1ncc2c(n1)N(C)C(=O)N(c1c(Cl)c(OC)cc(OC)c1Cl)C2
Target of assay: RAF1 (human) (UniProt P04049)
Unit name: %
kinase still bound, per cent of control: 100

Kindly review the next molecule as well.
Please indicate kinase still bound, per cent of control recorded for COc1ccc(N(C(=O)Oc2c(C)cccc2C)c2ccnc(Nc3ccc(N4CCN(C)CC4)cc3)n2)c(OC)c1
95

----------
The following compounds are listed with their measured kinase still bound, per cent of control values.
target: CHEK1 (human); assay: KINOMEscan competition binding; details: compound 10.0 µM
Answer format: numeric, % implied, no suffix.

# annotated cases, reported kinase still bound, per cent of control shown
Structure smiles: COc1cc2ncnc(-n3nc(-c4ccccn4)nc3N)c2cc1OC
Target of assay: CHEK1 (human)
Unit name: %
Readout value: 100
//
Structure smiles: COCC(=O)NC/C=C/c1ccc2ncnc(Nc3ccc(Oc4ccc(C)nc4)c(C)c3)c2c1
Target of assay: CHEK1 (human)
Unit name: %
Readout value: 90
//
Structure smiles: COc1cc(N2CCN(C)CC2)ccc1Nc1ncc2c(n1)N(C)c1ccccc1C(=O)N2C
Target of assay: CHEK1 (human)
Unit name: %
Readout value: 100
//
Structure smiles: O=C(Nc1cccc(Nc2ncc(Br)c(NCCc3cnc[nH]3)n2)c1)N1CCCC1
Target of assay: CHEK1 (human)
Unit name: %
Readout value: 0.4

Return the recorded kinase still bound, per cent of control value; entry: O=C1NC(=O)/C(=C/c2ccc3nccc(-c4ccncc4)c3c2)S1
57

Name the recorded kinase still bound, per cent of control of the item CNC(=O)c1ccc(Nc2cc(Nc3ccccc3S(=O)(=O)C(C)C)c3cc[nH]c3n2)nc1 in your answer.
100

For O=c1cc(N2CCOCC2)oc2c(-c3cccc4c3sc3ccccc34)cccc12 , write its kinase still bound, per cent of control.
100

Give the reported kinase still bound, per cent of control for this compound. C=CC(=O)Nc1ccc(CN(C(=O)Nc2c(Cl)c(OC)cc(OC)c2Cl)c2cc(Nc3ccc(N4CCN(C)CC4)cc3)ncn2)cc1
100

Identify measured kinase still bound, per cent of control associated with C=CC(=O)Nc1cc(-n2c(=O)ccc3cnc4ccc(-c5cn[nH]c5)cc4c32)ccc1C
100

Give me measured kinase still bound, per cent of control, please, for this compound: COc1cc2ncn(-c3cc(OCc4ccccc4C(F)(F)F)c(C(N)=O)s3)c2cc1OC
100

----------
As shown below, each of these compounds has a reported kinase still bound, per cent of control value.
target: JAK1 JH1 catalytic (human) (UniProt P23458); assay: KINOMEscan competition binding; conditions: compound 10.0 µM
Sequence (P23458 whole entry, looked up): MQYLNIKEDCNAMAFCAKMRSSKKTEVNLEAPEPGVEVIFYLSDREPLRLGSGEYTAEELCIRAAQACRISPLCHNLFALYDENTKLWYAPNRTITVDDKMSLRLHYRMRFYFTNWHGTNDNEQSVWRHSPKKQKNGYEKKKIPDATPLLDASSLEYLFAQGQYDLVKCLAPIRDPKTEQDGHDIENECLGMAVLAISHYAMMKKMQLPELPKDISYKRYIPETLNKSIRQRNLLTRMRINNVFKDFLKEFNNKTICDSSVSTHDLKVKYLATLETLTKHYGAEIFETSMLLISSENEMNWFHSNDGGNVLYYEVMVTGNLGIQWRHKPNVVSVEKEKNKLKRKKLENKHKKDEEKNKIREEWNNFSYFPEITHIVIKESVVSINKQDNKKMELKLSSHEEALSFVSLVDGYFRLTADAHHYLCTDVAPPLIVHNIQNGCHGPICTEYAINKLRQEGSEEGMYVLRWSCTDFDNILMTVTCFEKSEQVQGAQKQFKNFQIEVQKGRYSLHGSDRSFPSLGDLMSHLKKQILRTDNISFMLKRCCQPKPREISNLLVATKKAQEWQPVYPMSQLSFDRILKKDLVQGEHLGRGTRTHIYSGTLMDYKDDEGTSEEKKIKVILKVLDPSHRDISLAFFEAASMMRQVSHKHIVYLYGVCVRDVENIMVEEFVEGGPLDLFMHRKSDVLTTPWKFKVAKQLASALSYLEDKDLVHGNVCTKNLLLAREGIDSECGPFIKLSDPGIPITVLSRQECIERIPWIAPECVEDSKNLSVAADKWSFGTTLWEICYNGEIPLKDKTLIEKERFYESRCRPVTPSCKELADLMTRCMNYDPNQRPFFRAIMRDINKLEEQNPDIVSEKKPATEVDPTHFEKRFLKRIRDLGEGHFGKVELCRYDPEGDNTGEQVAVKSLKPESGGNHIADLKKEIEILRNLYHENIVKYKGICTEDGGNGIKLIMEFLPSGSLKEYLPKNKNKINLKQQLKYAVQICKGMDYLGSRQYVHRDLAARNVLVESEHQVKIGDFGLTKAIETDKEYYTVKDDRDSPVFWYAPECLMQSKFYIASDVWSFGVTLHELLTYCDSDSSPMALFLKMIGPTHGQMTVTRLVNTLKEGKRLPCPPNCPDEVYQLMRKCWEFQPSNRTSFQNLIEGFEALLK

Here is how some compounds turned out for kinase still bound, per cent of control.
Structure smiles: NC(=O)Nc1cc(-c2cccc(F)c2)sc1C(=O)N[C@@H]1CCCNC1
kinase still bound, per cent of control: 17%

Structure smiles: CNC(=O)c1cc(Oc2ccc(NC(=O)Nc3ccc(Cl)c(C(F)(F)F)c3)cc2)ccn1
kinase still bound, per cent of control: 50%

Structure smiles: CS(=O)(=O)N1CCN(Cc2cc3nc(-c4cccc5[nH]ncc45)nc(N4CCOCC4)c3s2)CC1
kinase still bound, per cent of control: 100%

Structure smiles: C=CC(=O)Nc1ccc(CN(C(=O)Nc2c(Cl)c(OC)cc(OC)c2Cl)c2cc(Nc3ccc(N4CCN(C)CC4)cc3)ncn2)cc1
kinase still bound, per cent of control: 100%

Structure smiles: COc1cc2ncn(-c3cc(OCc4ccccc4C(F)(F)F)c(C(N)=O)s3)c2cc1OC
kinase still bound, per cent of control: 100%

Structure smiles: Cc1n[nH]c2ccc(-c3cncc(OC[C@@H](N)Cc4c[nH]c5ccccc45)c3)cc12
kinase still bound, per cent of control: 100%

Look up kinase still bound, per cent of control of CCN1CCN(C(=O)Cc2ccc(Nc3ncc(F)c(Nc4ccc(C(=O)Nc5ccccc5Cl)cc4)n3)cc2)CC1 and report it.
6.9%

----------
target: BRSK1 (human) (UniProt Q8TDC3); experiment: KINOMEscan competition binding; details: compound 10.0 µM
Sequence (Q8TDC3 whole entry, looked up): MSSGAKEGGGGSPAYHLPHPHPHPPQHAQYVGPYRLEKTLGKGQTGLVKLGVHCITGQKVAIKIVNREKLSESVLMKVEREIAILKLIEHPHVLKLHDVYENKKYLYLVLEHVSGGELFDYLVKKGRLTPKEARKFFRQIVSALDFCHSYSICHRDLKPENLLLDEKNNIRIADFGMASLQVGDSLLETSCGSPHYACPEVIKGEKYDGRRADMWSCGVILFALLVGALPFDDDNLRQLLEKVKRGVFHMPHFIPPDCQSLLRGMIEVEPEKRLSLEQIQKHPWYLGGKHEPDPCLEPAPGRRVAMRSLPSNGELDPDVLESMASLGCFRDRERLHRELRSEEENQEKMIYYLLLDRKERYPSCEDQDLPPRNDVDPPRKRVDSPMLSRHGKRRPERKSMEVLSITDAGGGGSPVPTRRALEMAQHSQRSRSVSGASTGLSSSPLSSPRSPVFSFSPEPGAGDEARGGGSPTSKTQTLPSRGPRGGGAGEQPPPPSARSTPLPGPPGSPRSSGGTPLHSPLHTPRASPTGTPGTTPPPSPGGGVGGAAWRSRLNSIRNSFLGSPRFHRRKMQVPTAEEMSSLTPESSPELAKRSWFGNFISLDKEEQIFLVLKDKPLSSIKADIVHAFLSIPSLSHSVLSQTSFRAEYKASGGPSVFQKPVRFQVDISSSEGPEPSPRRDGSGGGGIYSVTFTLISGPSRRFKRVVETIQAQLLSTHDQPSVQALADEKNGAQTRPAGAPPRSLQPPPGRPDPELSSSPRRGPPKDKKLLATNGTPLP
Measurement kind: kinase still bound, per cent of control (%)
Express your answer in %, writing the number without its unit.

Structure smiles: COc1cc(N2CCN(C)CC2)ccc1Nc1ncc2c(n1)N(C)c1ccccc1C(=O)N2C
Target of assay: BRSK1 (human) (UniProt Q8TDC3)
kinase still bound, per cent of control / %: 100

Structure smiles: C=CC(=O)Nc1ccc(CN(C(=O)Nc2c(Cl)c(OC)cc(OC)c2Cl)c2cc(Nc3ccc(N4CCN(C)CC4)cc3)ncn2)cc1
Target of assay: BRSK1 (human) (UniProt Q8TDC3)
kinase still bound, per cent of control / %: 100

Hello, please tell me recorded kinase still bound, per cent of control for this one: COc1ccc(N(C(=O)Oc2c(C)cccc2C)c2ccnc(Nc3ccc(N4CCN(C)CC4)cc3)n2)c(OC)c1
68

Note kinase still bound, per cent of control for the molecule shown: CNC(=O)c1cc(Oc2ccc(NC(=O)Nc3ccc(Cl)c(C(F)(F)F)c3)cc2)ccn1
92

Name the recorded kinase still bound, per cent of control of the molecule listed here: O=C1NC(=O)/C(=C/c2ccc3nccc(-c4ccncc4)c3c2)S1
73

Let me know recorded kinase still bound, per cent of control for Cc1n[nH]c2ccc(-c3cncc(OC[C@@H](N)Cc4c[nH]c5ccccc45)c3)cc12 , thanks.
100

Supply measured kinase still bound, per cent of control of CNC(=O)c1ccc(Nc2cc(Nc3ccccc3S(=O)(=O)C(C)C)c3cc[nH]c3n2)nc1 in your reply.
100

----------
Entries annotated with measured kinase still bound, per cent of control
target: MARK2 (human) (UniProt Q7KZI7); test: KINOMEscan competition binding; conditions: compound 10.0 µM
Sequence (Q7KZI7 whole entry, looked up): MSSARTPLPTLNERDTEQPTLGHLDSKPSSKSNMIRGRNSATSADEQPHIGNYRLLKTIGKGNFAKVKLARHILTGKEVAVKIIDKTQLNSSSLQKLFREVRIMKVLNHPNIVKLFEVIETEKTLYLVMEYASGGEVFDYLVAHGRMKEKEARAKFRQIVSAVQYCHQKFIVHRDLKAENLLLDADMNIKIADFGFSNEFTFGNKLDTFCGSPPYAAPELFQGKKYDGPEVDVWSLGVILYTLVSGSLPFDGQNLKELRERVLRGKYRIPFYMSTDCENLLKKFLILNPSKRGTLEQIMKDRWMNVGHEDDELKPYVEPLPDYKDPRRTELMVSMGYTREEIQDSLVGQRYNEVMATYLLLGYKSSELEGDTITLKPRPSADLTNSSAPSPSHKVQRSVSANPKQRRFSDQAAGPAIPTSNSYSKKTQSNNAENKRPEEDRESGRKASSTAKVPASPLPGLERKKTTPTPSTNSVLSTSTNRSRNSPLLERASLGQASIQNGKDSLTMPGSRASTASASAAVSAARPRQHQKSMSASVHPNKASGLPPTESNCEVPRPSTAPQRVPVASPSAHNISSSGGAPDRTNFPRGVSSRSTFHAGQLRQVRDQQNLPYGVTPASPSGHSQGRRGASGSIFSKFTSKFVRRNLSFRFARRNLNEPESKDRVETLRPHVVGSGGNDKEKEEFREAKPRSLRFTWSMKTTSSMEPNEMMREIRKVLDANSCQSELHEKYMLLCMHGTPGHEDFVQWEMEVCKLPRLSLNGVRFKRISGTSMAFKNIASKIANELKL
# unit: % | format: bare number

Please review the following examples before continuing.
Structure smiles: CCN(CC)CCCCNc1ncc2cc(-c3cc(OC)cc(OC)c3)c(NC(=O)NC(C)(C)C)nc2n1
Target of assay: MARK2 (human) (UniProt Q7KZI7)
Unit name: %
Readout value: 100
--
Structure smiles: CNC(=O)c1cc(Oc2ccc(NC(=O)Nc3ccc(Cl)c(C(F)(F)F)c3)cc2)ccn1
Target of assay: MARK2 (human) (UniProt Q7KZI7)
Unit name: %
Readout value: 98
--
Structure smiles: C[C@@H](Oc1cc(-c2cnn(C3CCNCC3)c2)cnc1N)c1c(Cl)ccc(F)c1Cl
Target of assay: MARK2 (human) (UniProt Q7KZI7)
Unit name: %
Readout value: 20
--
Structure smiles: N#CCNC(=O)c1ccc(-c2ccnc(Nc3ccc(N4CCOCC4)cc3)n2)cc1
Target of assay: MARK2 (human) (UniProt Q7KZI7)
Unit name: %
Readout value: 43

State its kinase still bound, per cent of control for this compound: COc1ccc(N(C(=O)Oc2c(C)cccc2C)c2ccnc(Nc3ccc(N4CCN(C)CC4)cc3)n2)c(OC)c1
87

Read off the recorded kinase still bound, per cent of control for COc1cc(N2CCN(C)CC2)ccc1Nc1ncc2c(n1)N(C)c1ccccc1C(=O)N2C
100

Could you please provide reported kinase still bound, per cent of control for NC(=O)Nc1cc(-c2cccc(F)c2)sc1C(=O)N[C@@H]1CCCNC1 ? Thanks!
0.9

Give recorded kinase still bound, per cent of control. C=CC(=O)Nc1ccc(CN(C(=O)Nc2c(Cl)c(OC)cc(OC)c2Cl)c2cc(Nc3ccc(N4CCN(C)CC4)cc3)ncn2)cc1
100

Fill in kinase still bound, per cent of control for record CNC(=O)c1ccc(Nc2cc(Nc3ccccc3S(=O)(=O)C(C)C)c3cc[nH]c3n2)nc1
33

Please list kinase still bound, per cent of control recorded for the compound COc1cc2ncn(-c3cc(OCc4ccccc4C(F)(F)F)c(C(N)=O)s3)c2cc1OC
50

In one line, give reported kinase still bound, per cent of control of the entry O=C1NC(=O)/C(=C/c2ccc3nccc(-c4ccncc4)c3c2)S1 .
74

----------
target: MLTK (human); test: KINOMEscan competition binding; conditions: compound 10.0 µM
Measurement kind: kinase still bound, per cent of control (%)
I only need the number, in %, no unit after it.

In the examples that follow, each entry is paired with its recorded kinase still bound, per cent of control.
Structure smiles: CNC(=O)c1cc(Oc2ccc(NC(=O)Nc3ccc(Cl)c(C(F)(F)F)c3)cc2)ccn1
Target of assay: MLTK (human)
kinase still bound, per cent of control (%): 4.2
--
Structure smiles: C=CC(=O)Nc1cc(-n2c(=O)ccc3cnc4ccc(-c5cn[nH]c5)cc4c32)ccc1C
Target of assay: MLTK (human)
kinase still bound, per cent of control (%): 6.9
--
Structure smiles: O=c1cc(N2CCOCC2)oc2c(-c3cccc4c3sc3ccccc34)cccc12
Target of assay: MLTK (human)
kinase still bound, per cent of control (%): 93
--
Structure smiles: COc1cc(N2CCN(C)CC2)ccc1Nc1ncc2c(n1)N(C)c1ccccc1C(=O)N2C
Target of assay: MLTK (human)
kinase still bound, per cent of control (%): 100
--
Structure smiles: CNC(=O)c1ccc(Nc2cc(Nc3ccccc3S(=O)(=O)C(C)C)c3cc[nH]c3n2)nc1
Target of assay: MLTK (human)
kinase still bound, per cent of control (%): 100

Recall and state the measured kinase still bound, per cent of control for O=C(Nc1cccc(Nc2ncc(Br)c(NCCc3cnc[nH]3)n2)c1)N1CCCC1 .
12

Return the recorded kinase still bound, per cent of control value; entry: COCC(=O)NC/C=C/c1ccc2ncnc(Nc3ccc(Oc4ccc(C)nc4)c(C)c3)c2c1
76

Look up and state reported kinase still bound, per cent of control for COc1cc2ncnc(-n3nc(-c4ccccn4)nc3N)c2cc1OC
4.5

Return kinase still bound, per cent of control for the following molecule: COc1ccc(N(C(=O)Oc2c(C)cccc2C)c2ccnc(Nc3ccc(N4CCN(C)CC4)cc3)n2)c(OC)c1
24

For C[C@@H](Oc1cc(-c2cnn(C3CCNCC3)c2)cnc1N)c1c(Cl)ccc(F)c1Cl , write its kinase still bound, per cent of control.
100

Dear colleague, please send me the reported kinase still bound, per cent of control for COc1cc(C(=O)N2CCC(N3CCN(C)CC3)CC2)ccc1Nc1ncc2c(n1)N(C)c1ccccc1C(=O)N2C when you can.
99

Please list kinase still bound, per cent of control recorded for the molecule CS(=O)(=O)N1CCN(Cc2cc3nc(-c4cccc5[nH]ncc45)nc(N4CCOCC4)c3s2)CC1
100
